Tested on: popliteal lymph node, mixed lymphocyte reaction
Experiment: popliteal lymph node (PLN) test procedure (in vivo mixed lymphocyte reaction)
Parameters: species or system C3H mice (recipients), BALB/c donors
Conditions: p.o. daily Day 0 to Day 4; ratio, rapamycin = 1.00
Reported PLN (ratio) by item:
Provide the reading as a plain figure in ratio.

{"MOLECULAR_STRING": "CO[C@H]1C[C@@H]2CC[C@@H](C)[C@@](O)(O2)C(=O)C(=O)N2CCCC[C@H]2C(=O)O[C@H]([C@H](C)C[C@@H]2CC[C@@H](OC(=O)Nc3ccc([N+](=O)[O-])cc3)[C@H](OC)C2)CC(=O)[C@H](C)/C=C(\\C)[C@@H](O)[C@@H](OC)C(=O)[C@H](C)C[C@H](C)/C=C/C=C/C=C/1C", "MEASURE_UNIT": "ratio", "PLN (ratio)": 0.25}
{"MOLECULAR_STRING": "CO[C@H]1C[C@@H]2CC[C@@H](C)[C@@](O)(O2)C(=O)C(=O)N2CCCC[C@H]2C(=O)O[C@H]([C@H](C)C[C@@H]2CC[C@@H](OC(=O)Nc3ccc(F)cc3)[C@H](OC)C2)CC(=O)[C@H](C)/C=C(\\C)[C@@H](O)[C@@H](OC)C(=O)[C@H](C)C[C@H](C)/C=C/C=C/C=C/1C", "MEASURE_UNIT": "ratio", "PLN (ratio)": 0.71}

The record that follows has no PLN (ratio) shown yet.
Prompt: Fill in the recorded PLN (ratio) for this compound, with popliteal lymph node, mixed lymphocyte reaction as test system: `CO[C@H]1C[C@@H]2CC[C@@H](C)[C@@](O)(O2)C(=O)C(=O)N2CCCC[C@H]2C(=O)O[C@H]([C@H](C)C[C@@H]2CC[C@@H](O)[C@H](OC)C2)CC(=O)[C@H](C)/C=C(\C)[C@@H](O)[C@@H](OC)C(=O)[C@H](C)C[C@H](C)/C=C/C=C/C=C/1C`
Response: 1.00
